Numbers sourced from paper PMC12196007.

assay: In situ single-pass intestinal perfusion; format: in vivo, Sprague–Dawley (SD) rats; details: both sexes, Sprague-Dawley, rat, other: in situ single-pass intestinal perfusion, ileum; read-out: Peff (effective permeability coefficient)
experimental.endpoint: Papp (×10⁻⁶ cm/s)
Report only the number, with the unit ×10⁻⁶ cm/s understood.

For COc1cc(/C=C/C(=O)CC(=O)/C=C/c2ccc(O)c(OC)c2)ccc1O , what is its reported Papp? 23.3

###

assay: In situ single-pass intestinal perfusion; type: in vivo, Sprague–Dawley (SD) rats; conditions: both sexes, Sprague-Dawley, rat, other: in situ single-pass intestinal perfusion, jejunum; read-out: Peff (effective permeability coefficient)
experimental.endpoint: Papp (×10⁻⁶ cm/s)
Report only the number, with the unit ×10⁻⁶ cm/s understood.

For COc1cc(/C=C/C(=O)CC(=O)/C=C/c2ccc(O)c(OC)c2)ccc1O [CUR, Curcumin] , what is its reported Papp? 26.1

###

test: In vivo pharmacokinetic study, oral gavage; design: species or system SD rats; conditions: both sexes, Sprague-Dawley, rat, plasma, po, 50 mg/kg
experimental.endpoint: Tmax
Form field: result (number plus unit)

For COc1cc(/C=C/C(=O)CC(=O)/C=C/c2ccc(O)c(OC)c2)ccc1O [CUR, Curcumin] , what is its reported Tmax? 1 h

###

assay: In situ single-pass intestinal perfusion; format: in vivo, Sprague–Dawley (SD) rats; details: both sexes, Sprague-Dawley, rat, other: in situ single-pass intestinal perfusion, colon; read-out: Peff (effective permeability coefficient)
experimental.endpoint: Papp (×10⁻⁶ cm/s)
Report only the number, with the unit ×10⁻⁶ cm/s understood.

For COc1cc(/C=C/C(=O)CC(=O)/C=C/c2ccc(O)c(OC)c2)ccc1O , what is its reported Papp? 8.3

###

experiment: In vivo pharmacokinetic study, oral gavage; parameters: species or system SD rats; conditions: both sexes, Sprague-Dawley, rat, plasma, po, 50 mg/kg
experimental.endpoint: half-life
Form field: result (number plus unit)

For COc1cc(/C=C/C(=O)CC(=O)/C=C/c2ccc(O)c(OC)c2)ccc1O , what is its reported half-life? 3.97 h
